System: RPMI-8226 leukemia
Experiment Description: NCI tumour cell line growth inhibition, 48 h
Measured Parameter: TGI

{"Molecule": "O=C1CSC(c2cccc(Cl)c2)N1c1ccc(-n2c(-c3ccccc3)nc3ccccc3c2=O)cc1 (centres undefined)", "Observed Result": "> 100 µM"}
{"Molecule": "CC(C)(O)[C@@H]1CC[C@](C)(C2[C@@H](O)C[C@@]3(C)C4C[C@H](OC5OCC(O)C(O)C5O)[C@H]5C(C)(C)[C@@H](OC6OCC(O)C(O)C6OC6OCC(O)C(O)C6O)CC[C@@]56C[C@@]46CC[C@]23C)O1 (some centres undefined)", "Observed Result": "> 100 µM"}
{"Molecule": "CC1=NN(c2cccc(Cl)c2)C2(C1=Cc1ccccc1)C(Cl)C(=O)N2c1nc2ccccc2s1 (centres undefined)", "Observed Result": "> 100 µM"}
{"Molecule": "C=C1C(=O)O[C@@H]2[C@@H]3O[C@@H](C[C@@H]13)[C@](C)(O)CC/C=C(\\C)CCC[C@H]2C", "Observed Result": "1.47 µM"}
{"Molecule": "CCc1cccc(C)c1NC(=O)CCc1n[nH]c(=S)o1", "Observed Result": "58.2 µM"}
{"Molecule": "O=C1OCC(C#Cc2ccccc2)=C1Br", "Observed Result": "3.09 µM"}
{"Molecule": "C/C(=N\\[N+](C)(C)C)c1ccc(C)c(C)c1", "Observed Result": "> 100 µM"}
{"Molecule": "CC1(c2ccccc2)CCN(C2CC2)CO1 (centres undefined)", "Observed Result": "> 100 µM"}
{"Molecule": "C=CC1(c2ccc(-c3ccccc3)cc2)OCCO1", "Observed Result": "> 100 µM"}

###

Test system: HCC-2998 colon
Experiment Description: NCI tumour cell line growth inhibition, 48 h
Recorded TGI, one value per entry.

{"Molecule": "CCN(Cc1ccccn1)c1ccc(CO)c(Cl)c1", "Value Qualifier": ">", "TGI / µM": 100}
{"Molecule": "COc1ccc(/C=C/c2cc(OC)c(OC)c(OC)c2)cc1O[Si](C)(C)C(C)(C)C", "Value Qualifier": ">", "TGI / µM": 100}
{"Molecule": "Nc1cc(N)c2nc(-c3ccccc3)c(NCCc3ccc(Cl)c(Cl)c3)nc2c1", "Value Qualifier": "=", "TGI / µM": 19.7}
{"Molecule": "O=C1CCC/C=C\\C[C@H]2C=CC(=O)/C2=C/C[C@H](CCc2cccc(C(F)(F)F)c2)O1", "Value Qualifier": "=", "TGI / µM": 3.54}
{"Molecule": "O=C1OC(c2ccccc2)=N/C1=C\\c1ccc(Br)cc1", "Value Qualifier": ">", "TGI / µM": 100}
{"Molecule": "CC12CCCCC1C(=O)C2(Cl)Cl (stereo not given)", "Value Qualifier": "=", "TGI / µM": 4.22}
{"Molecule": "COC(=O)/C(=N\\NC(N)=O)C(C(=O)C(=O)Nc1ccccc1C(=O)OC)c1nc2ccc(C(=O)c3ccccc3)cc2[nH]c1=O (stereo not given)", "Value Qualifier": ">", "TGI / µM": 100}
{"Molecule": "O=C(Nc1ccc(F)cc1F)c1cc(F)ccc1O", "Value Qualifier": "=", "TGI / µM": 13.1}
{"Molecule": "O=C1c2ccccc2C(=O)N1CCCC(=O)n1cc(F)c(=O)[nH]c1=O", "Value Qualifier": ">", "TGI / µM": 100}
{"Molecule": "CC1=C(Cc2ccccc2)C(Cc2ccccc2)=C(C)S1=O", "Value Qualifier": "=", "TGI / µM": 42.4}

###

Tested on: OVCAR-3 ovarian
Experiment Description: NCI tumour cell line growth inhibition, 48 h
Please enter T where TGI is greater than or equal to 20 µM, and F where it is lower.

{"Molecule": "OCCCCOC(c1ccccc1)(c1ccccc1)c1ccccc1", "Category": "T"}
{"Molecule": "CCOC(=O)C(Br)(C(N)=O)C1(O)OC(c2ccccc2)=C(Br)C1=O (stereo not drawn)", "Category": "T"}
{"Molecule": "CC[C@H](C)[C@H]1NC(=O)[C@@H](NC(=O)[C@@H](CC(C)C)N(C)C(=O)C2CCCN2C(=O)[C@H](C)O)[C@@H](C)OC(=O)[C@@H]2Cc3ccccc3CN2C(=O)[C@@H]2CCCN2C(=O)[C@H](CC(C)C)NC(=O)[C@@H](C)C(=O)[C@H](C(C)C)OC(=O)C[C@@H]1O (stereo partly drawn)", "Category": "F"}
{"Molecule": "O=C1CSC(c2ccc([N+](=O)[O-])cc2)N1c1nc(-c2ccc3c(c2)CCCC3)cs1 (stereo not drawn)", "Category": "T"}
{"Molecule": "CC12CCCCC1C(=O)C2(Cl)Cl (stereo not drawn)", "Category": "F"}
{"Molecule": "O=C(Nc1ccc(F)cc1F)c1cc(F)ccc1O", "Category": "T"}
{"Molecule": "C=Cc1c(C)c(O)cc2c1-c1ccc(O)c(C)c1CC2", "Category": "T"}
{"Molecule": "COc1ccc2c(c1)[n+](=O)c(C(=O)C/C(=N/NC(=O)c1ccccc1O)C(=O)Nc1ccc(Cl)c(C(F)(F)F)c1)c(C)n2[O-]", "Category": "T"}

###

System: LOX IMVI melanoma
Experiment Description: NCI tumour cell line growth inhibition, 48 h; in the data active = GI50 below about 0.43 µM; inactive = the rest
Classes used: t for active, f for inactive

{"Compound": "N#C/C(=C1C=C/C(=N/O)C(Cl)=C/1)c1ccc(Cl)cc1", "Target": "LOX IMVI melanoma", "Category": "f"}
{"Compound": "O=C1CCC/C=C\\C[C@H]2C=CC(=O)/C2=C/C[C@H](CCc2cccc(C(F)(F)F)c2)O1", "Target": "LOX IMVI melanoma", "Category": "f"}
{"Compound": "C=C1C(=O)O[C@@H]2[C@@H]3O[C@@H](C[C@@H]13)[C@](C)(O)CC/C=C(\\C)CCC[C@H]2C", "Target": "LOX IMVI melanoma", "Category": "f"}
{"Compound": "Cc1ccc(C2C3Cc4ccccc4C3=NN2c2ccc(S(=O)(=O)NC(=O)NC3CCCCC3)cc2)cc1 (stereo unspecified)", "Target": "LOX IMVI melanoma", "Category": "f"}
{"Compound": "O=C1CCc2c(Oc3ccc4c(c3)[C@H]3[C@@H](O4)[C@@H]3c3nc4ccc(C(F)(F)F)cc4[nH]3)ccnc2N1", "Target": "LOX IMVI melanoma", "Category": "t"}
{"Compound": "S=c1ssnc1-c1ccccn1", "Target": "LOX IMVI melanoma", "Category": "f"}
{"Compound": "CC(=O)Nc1c(Br)cc2c(c1Br)Cc1cc(Br)ccc1-2", "Target": "LOX IMVI melanoma", "Category": "f"}
{"Compound": "N#Cc1cnc(=O)n(C2CC(O)C(CO)O2)c1 (stereo unspecified)", "Target": "LOX IMVI melanoma", "Category": "f"}
{"Compound": "COc1cc(-c2nn(-c3ccc(NC(=O)NCCNS(=O)(=O)c4ccc(F)cc4)cc3)cc2-c2ccncc2)ccc1Cl", "Target": "LOX IMVI melanoma", "Category": "f"}
{"Compound": "Cc1ccc(-c2nc3nc(-c4ccc(Br)cc4)nc(N4CCCNCC4)c3o2)cc1", "Target": "LOX IMVI melanoma", "Category": "f"}
{"Compound": "COC(=O)c1c(C)c2n(c1C)C(=O)C(c1ccccc1)=C2", "Target": "LOX IMVI melanoma", "Category": "f"}

###

Tested on: LOX IMVI melanoma
Experiment Description: NCI tumour cell line growth inhibition, 48 h

{"Compound": "c1ccc2nc(-c3ccc4c(c3)OCO4)ccc2c1", "Value Qualifier": "=", "TGI, µM": 82.7}
{"Compound": "O=C(O)/C=C\\C(=O)c1ccc(Cl)cc1", "Value Qualifier": ">", "TGI, µM": 61.7}
{"Compound": "O=C(CC1(O)C(=O)Nc2ccccc21)c1ccc2ccccc2c1 (stereo not given)", "Value Qualifier": ">", "TGI, µM": 100}
{"Compound": "CCN(CC)c1ccc2cc3ccc(=[N+](CC)CC)cc-3oc2c1", "Value Qualifier": "=", "TGI, µM": 1.98}
{"Compound": "CN1C[C@@H](c2ccc(Cl)cc2)[C@]2(NC(=S)N(c3ccc(F)c(Cl)c3)C2=O)[C@@]12C(=O)NC1C=CC(Cl)=C[C@H]12 (stereo not given in full)", "Value Qualifier": "=", "TGI, µM": 3.33}

###

Test system: SR leukemia
Experiment Description: NCI tumour cell line growth inhibition, 48 h; in the data active means GI50 below about 0.43 µM; inactive means the rest
Classes used: Yes for active, No for inactive

{"Molecule Smiles": "O=C1OCC(C#Cc2ccccc2)=C1Br", "Category": "Yes"}
{"Molecule Smiles": "COc1cccc(/C=C2\\COc3ccc(O)c(O)c3C2=O)c1", "Category": "Yes"}
{"Molecule Smiles": "ClC(Cl)c1nc(-c2ccccc2)n2nc(-c3ccccc3)cc2n1", "Category": "No"}
